Conditions: in acetonitrile, 293.15 K

# sample smiles, solubility (mole fraction)
records = [
    ("C[C@H]1COc2c(N3CCN(C)CC3)c(F)c(N)c3c(=O)c(C(=O)O)cn1c23.Cl", "4.1e-06"),
]

----------
Settings: in water, 313.15 K
measured quantity: solubility (mole fraction)

# sample smiles, numeric readout
data = [
    ("C[C@H]1COc2c(N3CCN(C)CC3)c(F)c(N)c3c(=O)c(C(=O)O)cn1c23.Cl", 0.00311),
]

----------
Details: in acetonitrile, 298.15 K

# sample smiles, solubility (mole fraction)
records = [
    ("C[C@H]1COc2c(N3CCN(C)CC3)c(F)c(N)c3c(=O)c(C(=O)O)cn1c23.Cl", "4.68e-06"),
]
